Measured on: Mitogen-activated protein kinase 14 (Homo sapiens, UniProt Q16539)
Sequence (Q16539 whole entry): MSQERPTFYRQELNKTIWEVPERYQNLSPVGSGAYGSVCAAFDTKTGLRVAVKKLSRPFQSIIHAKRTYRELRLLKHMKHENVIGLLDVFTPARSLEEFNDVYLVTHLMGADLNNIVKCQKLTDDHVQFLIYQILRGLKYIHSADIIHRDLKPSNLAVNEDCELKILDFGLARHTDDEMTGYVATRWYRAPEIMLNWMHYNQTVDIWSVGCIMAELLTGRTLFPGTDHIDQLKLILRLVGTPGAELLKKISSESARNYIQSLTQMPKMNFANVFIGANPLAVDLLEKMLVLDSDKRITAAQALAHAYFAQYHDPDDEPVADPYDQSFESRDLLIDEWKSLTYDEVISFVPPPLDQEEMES
Protocol notes: Kinase Assay
Assay setup: 37 °C
pIC50: −log10 of the molar value.
// pIC50 lookup, one value per entry
Endpoint name: pIC50

>  <Molecule>
O=c1cc(-c2ccccc2)oc2cc(O)cc(O)c12 [5,7-dihydroxy-2-phenyl-4H-chromen-4-one]

>  <Experimental result>
4.40

$$$$
>  <Molecule>
Oc1cc(O)c2c(c1)O[C@H](c1ccc(O)c(O)c1)[C@H](O)C2

>  <Experimental result>
4.17

$$$$
>  <Molecule>
COc1ccc(-c2cc(=O)c3c(O)c(OC)c(O)cc3o2)cc1

>  <Experimental result>
4.49

$$$$
>  <Molecule>
C[C@@H]1O[C@@H](OC[C@H]2O[C@@H](Oc3c(-c4ccc(O)c(O)c4)oc4cc(O)cc(O)c4c3=O)[C@H](O)[C@@H](O)[C@@H]2O)[C@H](O)[C@H](O)[C@H]1O

>  <Experimental result>
4.18

$$$$

###

Property: pIC50; scope: individual compounds
Measured on: Mitogen-activated protein kinase 10 (Homo sapiens)
Sequence (P53779 whole entry): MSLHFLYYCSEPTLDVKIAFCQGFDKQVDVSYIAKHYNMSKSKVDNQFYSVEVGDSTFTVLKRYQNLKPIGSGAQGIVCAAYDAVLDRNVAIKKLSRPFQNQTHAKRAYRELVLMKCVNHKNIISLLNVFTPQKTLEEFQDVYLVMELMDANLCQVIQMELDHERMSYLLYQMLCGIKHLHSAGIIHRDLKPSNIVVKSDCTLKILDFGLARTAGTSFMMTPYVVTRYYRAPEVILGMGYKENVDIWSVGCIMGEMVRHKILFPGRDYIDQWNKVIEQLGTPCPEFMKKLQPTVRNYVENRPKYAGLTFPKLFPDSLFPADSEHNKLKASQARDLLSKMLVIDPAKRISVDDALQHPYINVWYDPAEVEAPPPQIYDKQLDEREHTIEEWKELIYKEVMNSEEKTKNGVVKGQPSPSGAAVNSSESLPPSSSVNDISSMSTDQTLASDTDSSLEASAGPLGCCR
Protocol notes: Kinase Assay
Assay setup: 37 °C
pIC50: −log10 of the molar value.

>  <Compound>
O=c1cc(-c2ccccc2)oc2cc(O)cc(O)c12 [5,7-dihydroxy-2-phenyl-4H-chromen-4-one]

>  <pIC50>
4.93

$$$$
>  <Compound>
COc1cc(-c2oc3cc(O)cc(O)c3c(=O)c2O)ccc1O

>  <pIC50>
5.20

$$$$
>  <Compound>
Oc1cc(O)c2c(c1)O[C@H](c1cc(O)c(O)c(O)c1)[C@@H](O)C2 [(+)-gallocatechin]

>  <pIC50>
5.28

$$$$
